system: 317291-083-R-J1-PDC complex spheroid growth; assay: Anticancer human tumor 317291-083-R-J1-PDC patient-derived soft tissue sarcoma cell line growth inhibition [Asc]; details: second compound 0.1 µM; first compound 0.0316 µM; stronger effect = lower value
viability, T/C values, listed per item

>  <COMPOUND>
NC1CCC(NC2CC2c2ccccc2)CC1 (configuration not stated) + Cc1c(S(C)(=O)=O)c(-c2cc(F)cc(N3CCN(c4ccc(NS(=O)(=O)c5ccc(NC(CCN6CCC(C(=O)OCCCP(=O)(O)O)CC6)CSc6ccccc6)c(S(=O)(=O)C(F)(F)F)c5)cc4)CC3)c2)c(-c2ccc(Cl)cc2)n1C(C)C

>  <TARGET_SYSTEM>
317291-083-R-J1-PDC complex spheroid growth

>  <viability, T/C, %>
77.6

$$$$
>  <COMPOUND>
NC1CCC(NC2CC2c2ccccc2)CC1 (configuration not stated) + CNC(C)C(=O)NC1CN(S(=O)(=O)c2cccc(S(=O)(=O)N3CCC4CCC(C(=O)NC(c5ccccc5)c5ccccc5)N4C(=O)C(NC(=O)C(C)NC)C3)c2)CCC2CCC(C(=O)NC(c3ccccc3)c3ccccc3)N2C1=O

>  <TARGET_SYSTEM>
317291-083-R-J1-PDC complex spheroid growth

>  <viability, T/C, %>
69.3

$$$$

* * *

test system: 317291-083-R-J1-PDC complex spheroid growth; assay: Anticancer human tumor 317291-083-R-J1-PDC cell line growth inhibition [Asc]; details: second compound 0.1 µM; first compound 0.001 µM; stronger effect = lower value;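 also: compound exposure lasted seven days after spheroids formed for three days; 100% = DMSO vehicle control wells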
viability, T/C values, listed per item

>  <MOLECULE>
Cn1ncnc1[C@H]1c2n[nH]c(=O)c3cc(F)cc(c23)N[C@@H]1c1ccc(F)cc1 + CNC(C)C(=O)NC1CN(S(=O)(=O)c2cccc(S(=O)(=O)N3CCC4CCC(C(=O)NC(c5ccccc5)c5ccccc5)N4C(=O)C(NC(=O)C(C)NC)C3)c2)CCC2CCC(C(=O)NC(c3ccccc3)c3ccccc3)N2C1=O

>  <UNIT_ABBREV>
%

>  <viability, T/C>
76.5

$$$$
>  <MOLECULE>
NC1CCC(NC2CC2c2ccccc2)CC1 (centres undefined) + CNC(C)C(=O)NC1CN(S(=O)(=O)c2cccc(S(=O)(=O)N3CCC4CCC(C(=O)NC(c5ccccc5)c5ccccc5)N4C(=O)C(NC(=O)C(C)NC)C3)c2)CCC2CCC(C(=O)NC(c3ccccc3)c3ccccc3)N2C1=O

>  <UNIT_ABBREV>
%

>  <viability, T/C>
52

$$$$
>  <MOLECULE>
Cn1ncnc1[C@H]1c2n[nH]c(=O)c3cc(F)cc(c23)N[C@@H]1c1ccc(F)cc1 + Cc1c(S(C)(=O)=O)c(-c2cc(F)cc(N3CCN(c4ccc(NS(=O)(=O)c5ccc(NC(CCN6CCC(C(=O)OCCCP(=O)(O)O)CC6)CSc6ccccc6)c(S(=O)(=O)C(F)(F)F)c5)cc4)CC3)c2)c(-c2ccc(Cl)cc2)n1C(C)C

>  <UNIT_ABBREV>
%

>  <viability, T/C>
90.8

$$$$
>  <MOLECULE>
NC1CCC(NC2CC2c2ccccc2)CC1 (centres undefined) + Cc1c(S(C)(=O)=O)c(-c2cc(F)cc(N3CCN(c4ccc(NS(=O)(=O)c5ccc(NC(CCN6CCC(C(=O)OCCCP(=O)(O)O)CC6)CSc6ccccc6)c(S(=O)(=O)C(F)(F)F)c5)cc4)CC3)c2)c(-c2ccc(Cl)cc2)n1C(C)C

>  <UNIT_ABBREV>
%

>  <viability, T/C>
78.9

$$$$

The reported numbers originate from PubChem BioAssay AID1963427.
